- system.name: Carbonic anhydrase 12 (Homo sapiens)
- test.protocol: Binding affinity to human CA XII assessed as inhibition constant
// Ki lookup, one value per entry
recorded.endpoint: Ki (µM)

• CCOC(=O)c1sc2ncnc(Nc3ccc(S(N)(=O)=O)cc3)c2c1C = 0.019
• COc1cccc(NC(=O)Nc2ccc(S(N)(=O)=O)cc2)c1 = 0.0091

----------
- system.name: Carbonic anhydrase 12 (Homo sapiens, UniProt O43570)
- Sequence (O43570 whole entry): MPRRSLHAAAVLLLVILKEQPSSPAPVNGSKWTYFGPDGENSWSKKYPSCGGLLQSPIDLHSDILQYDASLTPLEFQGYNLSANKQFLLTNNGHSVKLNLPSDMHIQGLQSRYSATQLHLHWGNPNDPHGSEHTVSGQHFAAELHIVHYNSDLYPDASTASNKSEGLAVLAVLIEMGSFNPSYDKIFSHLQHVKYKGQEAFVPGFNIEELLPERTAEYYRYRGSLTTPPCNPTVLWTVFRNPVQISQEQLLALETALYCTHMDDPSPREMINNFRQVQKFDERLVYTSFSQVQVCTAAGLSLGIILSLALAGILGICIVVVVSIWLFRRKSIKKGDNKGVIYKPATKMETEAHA
- test.protocol: Binding affinity to human recombinant CA XII assessed as inhibition constant
recorded.endpoint: Ki (nM)

* Nc1nn(C(=O)C23CC4CC(CC(C4)C2)C3)c(N)c1/N=N/c1ccccc1 | 140
